# System: Salmonella enterica serovar Typhimurium SL1344
# EXPERIMENT SUMMARY: normalized growth (OD600, IQM-normalized) in LPM (fraction of plate interquartile mean); higher = more bacterial growth (less inhibition)
# DETAILS: LPM pH 5.8; 10 µM; 16 h
In all, about 1,600 compounds were measured (“normalized growth (OD600, IQM-normalized) in LPM”: median about 1, lowest 2% from about 0.014 on). The entries come from a sample that favours the lowest values as a whole.
REPORTED ENDPOINT: normalized growth
Please reply with the value in numeric form only.

Worked examples, 4 molecules total:
CCCNC(C)(C)COC(=O)c1ccccc1 : 0.983
COc1cc(/C=C/C(=O)N2CCCCCCC2)cc(OC)c1OC : 0.961
C[C@H]1O[C@H](O[C@H]2[C@H](O)[C@@H](O)[C@@H](O[C@H]3[C@H](O)[C@@H](O)C(O)O[C@@H]3CO)O[C@@H]2CO)[C@H](O)[C@@H](O)[C@@H]1N[C@H]1C=C(CO)[C@@H](O)[C@H](O)[C@H]1O (stereo not given in full) : 1.07
CNCC[C@H](Oc1cccc2ccccc12)c1cccs1 : 1.05

Salmonella enterica serovar Typhimurium SL1344 normalized growth of CCN(CC)C(=O)c1cccnc1 is 1.14

----------
# Test system: Salmonella enterica serovar Typhimurium SL1344
# EXPERIMENT SUMMARY: normalized growth (OD600, IQM-normalized) in LPM (fraction of plate interquartile mean); higher = more bacterial growth (less inhibition)
# DETAILS: LPM pH 5.8; 10 µM; 16 h
In all, about 1,600 compounds were measured (“normalized growth (OD600, IQM-normalized) in LPM”: median about 1, lowest 2% from about 0.014 on). This is one part of a sample in which the lowest values are shown more often than they occur.
REPORTED ENDPOINT: normalized growth
// no unit string in output, number only

N[C@@H](Cc1cc(I)c(Oc2cc(I)c(O)c(I)c2)c(I)c1)C(=O)O : 1.03
CC(=O)N(c1onc(C)c1C)S(=O)(=O)c1ccc(N)cc1 : 1.08

Proceeding to the next compound to report its normalized growth.
Documented normalized growth of C[C@@H]1NC(=O)[C@@H](N)CNC(=O)[C@H](C2CCNC(=N)N2)NC(=O)/C(=C/NC(N)=O)NC(=O)[C@H](CNC(=O)CC(N)CCCN)NC1=O.N=C1NCC[C@H]([C@@H]2NC(=O)/C(=C/NC(N)=O)NC(=O)[C@H](CNC(=O)C[C@@H](N)CCCN)NC(=O)[C@H](CO)NC(=O)[C@@H](N)CNC2=O)N1 : 0.985

----------
# System: Salmonella enterica serovar Typhimurium SL1344
# EXPERIMENT SUMMARY: normalized growth (OD600, IQM-normalized) in LPM (fraction of plate interquartile mean); higher = more bacterial growth (less inhibition)
# DETAILS: LPM pH 5.8; 10 µM; 16 h
The full ranking holds about 1,600 compounds; the median of “normalized growth (OD600, IQM-normalized) in LPM” is about 1, and the lowest 2% start at about 0.014. The full list was thinned out, with the lowest values kept by preference.
Outcome label depends on normalized growth relative to 0.01: at/above gives 1, below gives -1.

// known answers, use as guide
CO[C@@]1(NC(=O)C2SC(=C(C(N)=O)C(=O)O)S2)C(=O)N2C(C(=O)O)=C(CSc3nnnn3C)CS[C@@H]21 (stereo not given in full) : -1
O=C(O)c1cn(C2CC2)c2cc(N3CCNCC3)c(F)cc2c1=O : 1
C=C(C)[C@H]1CC=C(C)CC1 : 1

Problem: Is it the case that O=C([O-])[C@H]1/C(=C/CO)O[C@@H]2CC(=O)N21.[Li+] has normalized growth reaching or exceeding 0.01?
Result: 1

Problem: Could you please find out whether CCn1cc(C(=O)O)c(=O)c2cc(F)c(N3CCNCC3)nc21 has normalized growth that meets 0.01 or exceeds it?
Result: 1
